Tested on: NFκB-driven transcription
measurement.description: NFκB-SEAP reporter, THP1 dual-cell reporter system
Format: cell-based
applied.conditions: Homo sapiens, THP-1; read-out: Cellular NFκB-SEAP
attribute.measured: IC50

[Q] State the recorded IC50 for this entry: `COc1cc2c(-n3ccnc3)ccnc2cc1Cl`
[A] 59 µM

----------
Examples of compounds with documented IC50 follow.
tgt: full-length human cGAS (Homo sapiens, UniProt Q8N884)
Construct: The cGAS assay was used to screen 100,000 compounds with full-length human cGAS; 6xHis; made in house
Sequence (Q8N884 whole entry): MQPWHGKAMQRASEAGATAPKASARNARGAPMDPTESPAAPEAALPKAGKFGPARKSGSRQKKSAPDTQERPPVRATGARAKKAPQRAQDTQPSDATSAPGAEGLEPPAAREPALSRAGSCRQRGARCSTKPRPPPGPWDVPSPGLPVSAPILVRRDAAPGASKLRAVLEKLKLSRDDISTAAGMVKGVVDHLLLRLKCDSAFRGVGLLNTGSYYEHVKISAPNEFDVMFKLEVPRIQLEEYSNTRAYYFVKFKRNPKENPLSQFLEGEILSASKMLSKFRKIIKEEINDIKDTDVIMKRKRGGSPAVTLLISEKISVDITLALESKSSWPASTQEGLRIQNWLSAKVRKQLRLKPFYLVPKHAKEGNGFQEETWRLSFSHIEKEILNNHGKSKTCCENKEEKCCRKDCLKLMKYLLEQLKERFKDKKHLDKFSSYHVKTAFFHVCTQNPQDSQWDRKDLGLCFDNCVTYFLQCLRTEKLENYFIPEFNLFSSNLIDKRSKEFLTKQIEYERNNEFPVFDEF
measurement.description: cGAS enzymatic assay (FP readout), inhibition of cGAS
Assay type: biochemical
applied.conditions: cGAS (30 nM), with Mn2+; read-out: Inhibition cGAS + Mn^2+ (IC50 class)

INSERT INTO results (compound, tgt, result) VALUES
  ('Nc1ccc2c(-n3ccnc3)ccnc2c1 [Compound 9, 4-(1H-imidazol-1-yl)quinolin-7-amine]', 'full-length human cGAS (Homo sapiens, UniProt Q8N884)', '> 10000 nM'),
  ('CCOc1cc2c(-n3ccnc3)ccnc2cc1Cl [Compound 23]', 'full-length human cGAS (Homo sapiens, UniProt Q8N884)', '100 to 500 nM'),
  ('Nc1ccc2nccc(-n3ccnc3)c2c1 [Compound 11, 4-(1H-imidazol-1-yl)quinolin-6-amine]', 'full-length human cGAS (Homo sapiens, UniProt Q8N884)', '1000 to 10000 nM');

Now for another entry.
[Q] For the compound shown here, Clc1ccc2c(-n3ccnc3)ccnc2c1 [Compound 1, 7-chloro-4-(1H-imidazol-1-yl)quinolone] , give the reported IC50.
[A] 100 to 500 nM

----------
measurement.description: Solubility Ksol in PBS pH 7.4
Assay type: physicochemical
applied.conditions: pH 7.4, aqueous buffer, kinetic from dmso stock
attribute.measured: solubility (µM)
Your answer is read as µM, so omit the unit and give the number.

[Q] What measured solubility goes with COc1cc2c(-n3ccnc3)ccnc2cc1Cl [Compound 14] ?
[A] 224

----------
Test system: P-glycoprotein (MDR1)
measurement.description: MDCK-MDR permeability and efflux
Type: in vitro ADME, Canine
applied.conditions: dog, MDCK-MDR1
attribute.measured: efflux ratio
// return just the number, without any unit appended

[Q] What measured efflux ratio is associated with COc1cc2c(-n3ccnc3)ccnc2cc1Cl [Compound 14] on P-glycoprotein (MDR1)?
[A] 0.5

----------
tgt: full-length human cGAS (Homo sapiens, UniProt Q8N884)
Construct: The cGAS assay was used to screen 100,000 compounds with full-length human cGAS; 6xHis; made in house
measurement.description: cGAS enzymatic assay (FP readout), inhibition of cGAS
Assay type: biochemical
applied.conditions: cGAS (30 nM), with Mn2+; read-out: Inhibition cGAS + Mn^2+ (IC50 class)
pIC50: −log10 of the molar value.
attribute.measured: pIC50

INSERT INTO assay_data (compound, result) VALUES
  ('Clc1ccc2c(-n3ccnc3)c(-c3ccccc3)cnc2c1 [Compound 13]', '6.30 to 7.00');

[Q] Query pIC50 on full-length human cGAS (Homo sapiens, UniProt Q8N884) for O=C(Cc1ccccc1)Nc1ccc(C(=O)Nc2ccc(C(=O)O)cc2)cc1 [Compound 26]
[A] < 5.00

[Q] Record: COc1cc2c(-n3ccnc3)ccnc2cc1Br [Compound 22]
[A] > 7.00

[Q] Another compound: COc1cc2c(-n3ccnc3)c(C(=O)O)cnc2cc1Cl [Compound 15]
[A] > 7.00

[Q] How about this compound: Brc1ccc2nccc(-n3ccnc3)c2c1 [Compound 7, 6-bromo-4-(1H-imidazol-1-yl)quinoline]
[A] 5.00 to 6.00

----------
tgt: full-length human cGAS (Homo sapiens)
Construct: The cGAS assay was used to screen 100,000 compounds with full-length human cGAS; 6xHis; made in house
measurement.description: cGAS enzymatic assay (FP readout), inhibition of cGAS
Assay type: biochemical
applied.conditions: cGAS (30 nM), no Mn2+; read-out: Inhibition cGAS (IC50 class)
attribute.measured: IC50

Consider the reported IC50 for these compounds:
INSERT INTO assay_data (compound, result) VALUES
  ('Cc1ccc(S(=O)(=O)Nc2ccc(C(=O)Nc3ccncc3)cc2)cc1 [Compound 24]', '> 10 µM'),
  ('O=C(Nc1ccc(C(=O)Nc2ccccc2C(=O)O)cc1)c1ccc(I)cc1 [Compound 27]', '> 10 µM'),
  ('COc1cc2c(N3CCC[C@H]3C(=O)O)nc(-c3ccccc3)nc2cc1Cl [Compound 17]', '1 to 10 µM'),
  ('CCOc1cc2c(-n3ccnc3)ccnc2cc1Cl [Compound 23]', '0.5 to 1 µM');

Then this compound:
[Q] full-length human cGAS (Homo sapiens) / IC50 / Clc1ccc2c(-n3ccnc3)cc(-c3ccccc3)nc2c1 [Compound 12] : value?
[A] 1 to 10 µM

----------
tgt: full-length human cGAS (Homo sapiens, UniProt Q8N884)
Construct: The cGAS assay was used to screen 100,000 compounds with full-length human cGAS; 6xHis; made in house
measurement.description: cGAS enzymatic assay (FP readout), inhibition of cGAS
Type: biochemical
applied.conditions: cGAS (30 nM), no Mn2+; read-out: Inhibition cGAS (IC50 class)
attribute.measured: IC50

Worked examples, 8 compounds total:
INSERT INTO measurements (smi, tgt, result) VALUES
  ('COc1ccc(CC(=O)Nc2cccc(C(=O)Nc3ccccc3C(=O)O)c2)cc1', 'full-length human cGAS (Homo sapiens, UniProt Q8N884)', '> 10 µM'),
  ('Clc1ccc2c(-n3ccnc3)ncnc2c1', 'full-length human cGAS (Homo sapiens, UniProt Q8N884)', '> 10 µM'),
  ('COc1ccc2c(-n3ccnc3)ccnc2c1', 'full-length human cGAS (Homo sapiens, UniProt Q8N884)', '> 10 µM'),
  ('Nc1cc(-n2ccnc2)c2ccc(Cl)cc2n1', 'full-length human cGAS (Homo sapiens, UniProt Q8N884)', '0.5 to 1 µM'),
  ('O=C(NCc1ccccc1)c1nc2[nH]c3c(c(=O)n2n1)CCC3', 'full-length human cGAS (Homo sapiens, UniProt Q8N884)', '> 10 µM'),
  ('O=C(Cc1ccccc1)Nc1ccc(C(=O)Nc2ccc(C(=O)O)cc2)cc1', 'full-length human cGAS (Homo sapiens, UniProt Q8N884)', '> 10 µM'),
  ('COc1cc2c(-n3ccnc3)c(C(=O)O)cnc2cc1Cl', 'full-length human cGAS (Homo sapiens, UniProt Q8N884)', '0.1 to 0.5 µM'),
  ('Clc1ccc2c(-n3ccnc3)c(-c3ccccc3)cnc2c1', 'full-length human cGAS (Homo sapiens, UniProt Q8N884)', '0.5 to 1 µM');

[Q] Notebook entry, full-length human cGAS (Homo sapiens, UniProt Q8N884) assay: IC50 of `Cc1cc(-n2ccnc2)c2ccc(Cl)cc2n1` = ?
[A] 0.5 to 1 µM

[Q] Try the compound `Fc1ccc2c(-n3ccnc3)ccnc2c1`
[A] > 10 µM

[Q] One more compound: `Brc1ccc2c(-n3ccnc3)ccnc2c1`
[A] 1 to 10 µM

[Q] Can you handle `O=C(Cc1ccccc1)Nc1ccc(C(=O)Nc2ccccc2C(=O)O)cc1` next?
[A] > 10 µM

[Q] Proceed to `O=C(Nc1ccccc1C(=O)O)c1ccc(NC(=O)c2ccccc2Br)cc1`
[A] > 10 µM

----------
System: DNA-stimulated IFNβ expression
measurement.description: IFNβ ELISA, DNA-stimulated IFNβ expression
Format: cell-based
applied.conditions: read-out: Cellular IFNβ ELISA
attribute.measured: pIC50
As a rule, pIC50 stands for the negative log10 of the concentration, concentration in M.

[Q] Could you share which pIC50 value was measured for COc1cc2c(-n3ccnc3)ccnc2cc1Cl [Compound 14] ?
[A] 4.17

----------
tgt: full-length human cGAS (Homo sapiens)
Construct: The cGAS assay was used to screen 100,000 compounds with full-length human cGAS; 6xHis; made in house
measurement.description: cGAS enzymatic assay (FP readout), inhibition of cGAS
Assay type: biochemical
applied.conditions: cGAS (30 nM), with Mn2+; read-out: Inhibition cGAS + Mn^2+ (IC50 class)
Procedure: Some exemplary compounds of the disclosure were tested for inhibition of cGAS (30 nM). […] A homogenous cGAS enzymatic assay was developed with fluorescence polarization (FP) and time-resolved Forster resonance energy transfer (TR-FRET) readouts (FIG. 2A-D). […]
// values below are reported IC50

Known results for compounds:
INSERT INTO results (smi, attribute_measured, result) VALUES
  ('O=C(Cc1ccccc1)Nc1ccc(C(=O)Nc2ccccc2C(=O)O)cc1', 'IC50', '> 10 µM'),
  ('Cc1cc2c(-n3ccnc3)ccnc2cc1Cl', 'IC50', '0.5 to 1 µM');

[Q] Tell me the measured IC50 of `O=C(O)[C@@H](Cc1ccccc1)Nc1ncnc2c1CCCC2` , please.
[A] > 10 µM

All figures here come from patent US20220073470A1.
